- Test system: ABL1(T315I)-phosphorylated;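 further: KINOMEscan scanMAX binding as percent activity remaining versus control; lower means stronger binding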
- appliedConditions: Compound Concentration (nM):1000
For each of the compounds below, state its Percent Control.
Answers are plain numbers, in %.

Solved entries:
> print(dat)
                                   compound      readoutkind  valueunits  recordedresult
1  C/C(Nc1ccc(S(N)(=O)=O)cc1)=C1/C(=O)Nc2ccccc21 [GW335962X]  Percent Control           %              86
2  Cl.O=S1CCN(Cc2ccc(-c3ccc4ncnc(Nc5ccc(OCc6ccccc6)c(F)c5)c4c3)o2)CC1 [GW576924A]  Percent Control           %             100
3  Cl.c1ccc(Cc2nc3ccc(Nc4ncnc5ccccc45)cc3[nH]2)cc1 [GR269666A]  Percent Control           %             100
4  COc1cc(/C=N/Nc2ncnc3[nH]ncc23)ccc1O [GW578748X]  Percent Control           %              24

Provide Percent Control for all items below, preserving their order.
1. CN(C)c1cc2c(Nc3ccc4c(cnn4Cc4ccccc4)c3)ncnc2cn1 [GW282974X]
2. COc1cc(N2CCN(C(C)C)CC2)ccc1Nc1nc(Nc2ccc(F)cc2C(=O)NC[C@@H](O)CO)c2cc[nH]c2n1 [GSK1392956A]
3. NS(=O)(=O)c1ccc(Nc2ncc(-c3ccccc3)o2)cc1 [GW572399X]
4. Cl.O=C(Nc1ccc(Oc2ccc3[nH]c(NC(=O)c4ccco4)nc3c2)cc1)Nc1cc(C(F)(F)F)ccc1F [GW683134A]

Resp:
1. 100
2. 100
3. 89
4. 9.2

meta.source: paper PMC7826789
